growth overview
System: UO-31 renal
measurementDescription: NCI-60 one-dose screen, 48 h (100 = growth as untreated, 0 = no growth, -100 = all killed)
testSettings: 10 µM unless noted
About 83,000 compounds went through this panel and 20% of them were active in at least one assay; those are over-represented in the sample as a whole.
A number alone suffices; assume %.

COc1ccc(CSc2nc3cc(OC)c(OC)cc3c(=O)n2-c2ccc(Cl)cc2)cc1: 71.2
O=C(Nc1nc2ccccc2[nH]1)C(=O)Nc1nc2ccccc2[nH]1: 69.6
Cc1ccccc1-c1cc(-c2ccc(Br)s2)[nH]c(=O)c1C#N: 83.3
CCOC(=O)c1cc2c(n(C)c1=O)-c1cnn(-c3ccc(OC)cc3)c1CC2: 77.5
COc1cccc(C2C3=C(COC3=O)N(CCO)c3cc4c(cc32)OCO4)c1 (stereo unspecified): 57.7
Cl.Fc1c[c-]c(-c2ccccn2)c(F)c1.[Pt].c1ccc([PH+](CC[PH+](c2ccccc2)c2ccccc2)c2ccccc2)cc1: -92.4

IN: State, for UO-31 renal, measured growth of the molecule listed here: `OC[C@@H](O)[C@@H](O)CO`
OUT: 80.5

IN: State, for UO-31 renal, measured growth of the molecule listed here: `CCCCNNC(=O)c1ccc(Br)cc1`
OUT: 25.1

IN: State, for UO-31 renal, measured growth of the molecule listed here: `CCSc1nnc2c3cc(Br)ccc3n(C)c2n1`
OUT: 63.3

IN: State, for UO-31 renal, measured growth of the molecule listed here: `CCOc1ccc(-c2cnnn2-c2nonc2-n2cccc2)cc1`
OUT: 29.8

IN: State, for UO-31 renal, measured growth of the molecule listed here: `COc1ccc(-c2c(-c3cc4c(c(OC)c3OC)OCO4)noc2N)cc1`
OUT: 57.4

====

Test system: OVCAR-4 ovarian
measurementDescription: NCI-60 one-dose screen, 48 h (100 = growth as untreated, 0 = no growth, -100 = all killed)
testSettings: 10 µM unless noted
Compounds without any hit were thinned out: in the full panel of roughly 83,000, 20% have a hit.
Assign Satisfied to entries whose growth meets or exceeds 90%; assign Not satisfied to the rest.

Reference set, count: 3
C=CC(=O)N1CC2(CCC(n3nc(-c4ccc(Oc5ccccc5)cc4)c4c(N)ncnc43)CC2)C1: Not satisfied
COc1cc(-c2nc(SC(C)C)nc(Nc3cccc(C)c3)c2C#N)cc(OC)c1OC: Satisfied
NC(=O)c1cccc(-n2ccc3cc(NC(=O)Nc4ccc(Cl)c(Cl)c4)ccc32)n1: Not satisfied

IN: Given the entry `Nc1nc2c(s1)CCc1c-2c(Br)n(Cc2ccccc2)c1Br` , answer whether its growth meets or surpasses 90%.
OUT: Not satisfied

IN: Given the entry COc1cccc(C2C3=C(COC3=O)N(CCO)c3cc4c(cc32)OCO4)c1 (stereo not drawn) , answer whether its growth meets or surpasses 90%.
OUT: Not satisfied

IN: Given the entry `O=C(Nc1ccc(Cl)c(Cl)c1)OCn1ncc2ccc([N+](=O)[O-])cc21` , answer whether its growth meets or surpasses 90%.
OUT: Satisfied

IN: Given the entry CCC12CCC3c4ccc(O)cc4CCC3C1CC(O)C2O (stereo not drawn) , answer whether its growth meets or surpasses 90%.
OUT: Not satisfied

IN: Given the entry `FC(F)(F)c1cc(CNc2ncc(Br)c(Cl)n2)cc(C(F)(F)F)c1` , answer whether its growth meets or surpasses 90%.
OUT: Satisfied

IN: Given the entry `NC(=S)N/N=C1\c2ccccc2-c2c(F)c(F)c(F)c(F)c21` , answer whether its growth meets or surpasses 90%.
OUT: Not satisfied

IN: Given the entry COc1ccc(C2SC(C)C(=O)N2CCc2cccs2)cc1OC (stereo not drawn) , answer whether its growth meets or surpasses 90%.
OUT: Not satisfied

IN: Given the entry O=C1c2ccccc2-c2cn(Cc3ccccc3)c3cccc(c23)C1c1cccnc1 (stereo not drawn) , answer whether its growth meets or surpasses 90%.
OUT: Not satisfied

IN: Given the entry `COc1cc(/C=C/C(=O)C(=Cc2ccc(F)c(F)c2)C(=O)/C=C/c2ccc(O)c(OC)c2)ccc1O` , answer whether its growth meets or surpasses 90%.
OUT: Not satisfied
